// reported IC50 for each item listed
target_system: human Cav3.2 channels (Homo sapiens)
Construct: expressed in transfected cells; host or cells: HEK293 cells (ATCC No. CRL-1573), plasmid pcDNA3.1(+)
test_description: Intracellular calcium concentration measurement (Fluo-4 AM) in stable cells expressing human Cav3.2 channels, buffer A / buffer B
Format: cell-based
condition_description: Tables 2 to 6; buffer A, equilibrium potential of potassium −92 mV; read-out: Inhibitory action of buffer A (inactivated state)

Sample records with IC50:
| compound | target_system | IC50 |
| --- | --- | --- |
| C[C@@H](NC(=O)[C@H]1C[C@@H]1c1nc2ccccc2[nH]1)c1ccc(C(=O)N2CCCC(F)C2)s1 (stereo partly shown) | human Cav3.2 channels (Homo sapiens) | 1 to 10 µM |
| C[C@H](c1cc2ccc(F)cc2o1)N(C)C(=O)[C@H]1C[C@@H]1c1nc2ccccc2[nH]1 | human Cav3.2 channels (Homo sapiens) | 0.1 to 1 µM |

Problem: What value of IC50 on human Cav3.2 channels (Homo sapiens) does C[C@@H](NC(=O)[C@H]1C[C@@H]1c1nc2ccccc2[nH]1)c1nc(C2CC2)no1 have?
Solution: 1 to 10 µM

Problem: What value of IC50 on human Cav3.2 channels (Homo sapiens) does C[C@@H](NC(=O)[C@@H]1CCN(c2nc3ccccc3s2)C1)c1cc2cc(F)ccc2o1 have?
Solution: 0.1 to 1 µM

Problem: What value of IC50 on human Cav3.2 channels (Homo sapiens) does C[C@@H](NC(=O)[C@H]1C[C@@H]1c1nc2ccccc2[nH]1)c1cc2ccccn2n1 have?
Solution: 1 to 10 µM

Problem: What value of IC50 on human Cav3.2 channels (Homo sapiens) does C[C@@H](NC(=O)[C@H]1C[C@@H]1c1nc2ccccc2[nH]1)c1cc2cc(F)c(F)cc2o1 have?
Solution: ≤ 0.1 µM

Problem: What value of IC50 on human Cav3.2 channels (Homo sapiens) does C[C@@H](NC(=O)[C@H]1C[C@@H]1c1nc2ccccc2[nH]1)c1nc2ccc(F)cc2o1 have?
Solution: 0.1 to 1 µM

---

target_system: human Cav3.2 channels (Homo sapiens)
Construct: expressed in transfected cells; host or cells: HEK293 cells (ATCC No. CRL-1573), plasmid pcDNA3.1(+)
test_description: Intracellular calcium concentration measurement (Fluo-4 AM) in stable cells expressing human Cav3.2 channels, buffer A / buffer B
Assay type: cell-based
condition_description: Table 1; buffer B, equilibrium potential of potassium −110 mV; read-out: Inhibitory action of buffer B (resting state or closed state)
// reported IC50 for each item listed

| molecule | metric | result |
| --- | --- | --- |
| C[C@@H](NC(=O)[C@@H]1CCN(c2nc3ccccc3[nH]2)C1)c1ccc(OCC(F)(F)F)s1 | IC50 | 1 to 10 µM |
| C[C@@H](NC(=O)C1CC1c1nc2ccccc2n1C)c1ccc(OCC(F)(F)F)s1 (single isomer, unassigned) [Example 4B] | IC50 | > 10 µM |

Problem: Field request: IC50 | item: CC(NC(=O)C1CC1c1nc2ccccc2[nH]1)c1cn(C(=O)OC(C)(C)C)c2ccccc12 (stereo not shown)
Solution: 0.1 to 1 µM

Problem: Field request: IC50 | item: C[C@@H](NC(=O)C1CC1c1nc2ccccc2[nH]1)c1ccc(Br)s1 (single isomer, unassigned) [Example 6B]
Solution: > 10 µM

---

target_system: human Cav3.2 channels (Homo sapiens, UniProt O95180)
Construct: expressed in transfected cells; host or cells: HEK293 cells (ATCC No. CRL-1573), plasmid pcDNA3.1(+)
Sequence (O95180 whole entry): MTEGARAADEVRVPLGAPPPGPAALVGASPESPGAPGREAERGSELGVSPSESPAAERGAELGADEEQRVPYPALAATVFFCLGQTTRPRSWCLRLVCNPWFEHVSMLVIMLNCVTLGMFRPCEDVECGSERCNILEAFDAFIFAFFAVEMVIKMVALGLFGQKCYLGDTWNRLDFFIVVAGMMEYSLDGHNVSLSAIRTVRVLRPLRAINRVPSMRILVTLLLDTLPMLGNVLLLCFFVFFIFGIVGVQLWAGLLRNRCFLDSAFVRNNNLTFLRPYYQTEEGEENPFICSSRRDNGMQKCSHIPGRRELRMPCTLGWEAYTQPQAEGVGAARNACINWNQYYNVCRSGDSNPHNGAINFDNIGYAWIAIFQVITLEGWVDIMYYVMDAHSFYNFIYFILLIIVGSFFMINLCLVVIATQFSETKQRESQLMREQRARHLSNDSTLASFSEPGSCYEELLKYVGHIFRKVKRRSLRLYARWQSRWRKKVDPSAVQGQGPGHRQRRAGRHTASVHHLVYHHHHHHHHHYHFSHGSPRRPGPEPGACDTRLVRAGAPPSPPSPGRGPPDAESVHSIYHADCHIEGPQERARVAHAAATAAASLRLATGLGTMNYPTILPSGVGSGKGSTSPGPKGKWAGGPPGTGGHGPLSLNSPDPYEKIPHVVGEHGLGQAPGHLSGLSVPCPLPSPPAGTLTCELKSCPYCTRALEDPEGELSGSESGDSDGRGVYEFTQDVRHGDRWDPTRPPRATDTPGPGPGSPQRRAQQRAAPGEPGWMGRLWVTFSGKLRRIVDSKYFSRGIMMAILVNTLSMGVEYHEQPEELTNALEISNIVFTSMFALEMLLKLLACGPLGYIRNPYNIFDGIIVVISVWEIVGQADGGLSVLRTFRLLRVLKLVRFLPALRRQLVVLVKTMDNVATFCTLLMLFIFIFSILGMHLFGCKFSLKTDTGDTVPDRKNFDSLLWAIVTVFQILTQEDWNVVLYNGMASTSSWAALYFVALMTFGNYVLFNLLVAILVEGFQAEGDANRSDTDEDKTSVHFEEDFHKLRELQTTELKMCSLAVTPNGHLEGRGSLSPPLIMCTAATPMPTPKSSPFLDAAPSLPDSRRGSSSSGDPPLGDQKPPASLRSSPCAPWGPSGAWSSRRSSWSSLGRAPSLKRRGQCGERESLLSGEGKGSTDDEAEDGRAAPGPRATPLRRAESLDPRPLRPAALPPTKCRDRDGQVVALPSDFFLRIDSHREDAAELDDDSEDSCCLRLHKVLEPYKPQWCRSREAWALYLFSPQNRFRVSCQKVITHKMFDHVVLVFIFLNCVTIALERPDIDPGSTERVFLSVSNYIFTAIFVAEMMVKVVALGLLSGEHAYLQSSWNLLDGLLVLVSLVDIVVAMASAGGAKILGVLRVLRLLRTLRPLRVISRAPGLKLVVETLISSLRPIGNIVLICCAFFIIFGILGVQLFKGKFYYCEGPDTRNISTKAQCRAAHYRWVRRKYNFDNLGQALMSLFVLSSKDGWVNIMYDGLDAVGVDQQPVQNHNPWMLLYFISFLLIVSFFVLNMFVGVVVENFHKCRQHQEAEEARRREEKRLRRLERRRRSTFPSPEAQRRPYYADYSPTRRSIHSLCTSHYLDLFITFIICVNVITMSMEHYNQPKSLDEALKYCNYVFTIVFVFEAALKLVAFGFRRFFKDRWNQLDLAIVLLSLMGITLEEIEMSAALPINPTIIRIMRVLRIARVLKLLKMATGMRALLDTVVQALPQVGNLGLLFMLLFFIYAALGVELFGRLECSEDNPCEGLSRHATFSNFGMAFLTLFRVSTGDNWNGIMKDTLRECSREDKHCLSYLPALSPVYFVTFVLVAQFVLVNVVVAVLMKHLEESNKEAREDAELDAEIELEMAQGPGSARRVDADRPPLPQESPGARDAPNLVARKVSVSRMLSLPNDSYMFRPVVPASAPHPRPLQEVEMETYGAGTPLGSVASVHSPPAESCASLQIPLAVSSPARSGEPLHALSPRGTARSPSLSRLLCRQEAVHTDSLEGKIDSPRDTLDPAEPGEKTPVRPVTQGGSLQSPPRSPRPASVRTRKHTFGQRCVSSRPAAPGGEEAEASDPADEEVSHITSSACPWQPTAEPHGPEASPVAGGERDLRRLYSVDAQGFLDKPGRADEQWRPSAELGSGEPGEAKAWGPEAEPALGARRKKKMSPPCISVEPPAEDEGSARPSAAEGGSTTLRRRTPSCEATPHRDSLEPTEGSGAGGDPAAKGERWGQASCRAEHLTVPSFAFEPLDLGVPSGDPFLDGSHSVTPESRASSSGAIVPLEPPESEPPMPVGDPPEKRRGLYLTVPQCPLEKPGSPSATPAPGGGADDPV
test_description: Intracellular calcium concentration measurement (Fluo-4 AM) in stable cells expressing human Cav3.2 channels, buffer A / buffer B
Format: cell-based
condition_description: Tables 2 to 6; buffer A, equilibrium potential of potassium −92 mV; read-out: Inhibitory action of buffer A (inactivated state)
Description: Construction of Stable Cells Expressing Human Cav3.2 Channels […] Stable cell line expressing human Cav3.2 channels, which had been produced in (1), was seeded in a 96-well plate using DMEM medium including 10% FBS, and the cells were cultured for 48 hours under the conditions of 37° C. and 5% CO2. […] The cells were left to stand for another 15 minutes at room temperature in the dark, and the cells were analyzed using the following method using a microplate reader, EnVision (PerkinElmer, Inc.). […]
metric: IC50

Sample records with IC50:
| compound | IC50 |
| --- | --- |
| Cc1c([C@@H](C)NC(=O)[C@H]2C[C@@H]2c2nc3ccccc3[nH]2)oc2ccc(F)cc12 [Example 101] | ≤ 100 nM |
| C[C@@H](NC(=O)C1CC1c1ncc2ccccn12)c1cc2cc(F)ccc2o1 (single isomer, unassigned) [Example 117B] | 1000 to 10000 nM |
| C[C@@H](NC(=O)C1CC1c1nc2ccccc2[nH]1)c1ccc(C(=O)O)s1 (single isomer, unassigned) [Example 26] | 100 to 1000 nM |

Problem: Field request: IC50 | item: C[C@@H](NC(=O)[C@H]1C[C@@H]1c1nc2ccccc2[nH]1)c1cc2cc(F)ccc2[nH]1 [Example 63]
Solution: ≤ 100 nM

Problem: Field request: IC50 | item: Cc1ccc2nc(C3CC3C(=O)N[C@H](C)c3ccc(OCC(F)(F)F)s3)[nH]c2n1 (single isomer, unassigned) [Example 106B]
Solution: 1000 to 10000 nM

Problem: Field request: IC50 | item: C[C@@H](NC(=O)[C@H]1C[C@@H]1c1nc2ccccc2[nH]1)c1cc2cc(F)ccc2o1 [Example 65]
Solution: ≤ 100 nM

Problem: Field request: IC50 | item: C[C@@H](NC(=O)C1CC1c1ccc2cnn(C)c2c1)c1ccc(OCC(F)(F)F)s1 (single isomer, unassigned) [Example 22A]
Solution: 100 to 1000 nM

Problem: Field request: IC50 | item: C[C@@H](NC(=O)[C@H]1C[C@@H]1c1nc2ccccc2[nH]1)c1nc2cc(F)ccc2o1 [Example 105]
Solution: 100 to 1000 nM

Problem: Field request: IC50 | item: C[C@@H](NC(=O)C1CC1c1ccc2ccccc2n1)c1ccc(OCC(F)(F)F)s1 (single isomer, unassigned) [Example 34B]
Solution: 100 to 1000 nM

Problem: Field request: IC50 | item: C[C@@H](NC(=O)[C@H]1C[C@@H]1c1nc2ccccc2[nH]1)c1cc2cc(C#N)ccc2o1 [Example 107]
Solution: 100 to 1000 nM

Problem: Field request: IC50 | item: CC(C)[C@@H](NC(=O)[C@H]1C[C@@H]1c1nc2ccccc2[nH]1)c1cc2ccc(F)cc2o1 [Example 124]
Solution: ≤ 100 nM

---

target_system: human Cav3.2 channels (Homo sapiens)
Construct: expressed in transfected cells; host or cells: HEK293 cells (ATCC No. CRL-1573), plasmid pcDNA3.1(+)
test_description: Intracellular calcium concentration measurement (Fluo-4 AM) in stable cells expressing human Cav3.2 channels, buffer A / buffer B
Type: cell-based
condition_description: Table 1; buffer A, equilibrium potential of potassium −92 mV; read-out: Inhibitory action of buffer A (inactivated state)
Where a name gives a salt, the structure may show the parent alone.
metric: IC50

| compound | metric | result |
| --- | --- | --- |
| C[C@@H](NC(=O)[C@@H]1CCN(c2nc3ccccc3[nH]2)C1)c1ccc(OCC(F)(F)F)s1 [Example 12] | IC50 | 100 to 1000 nM |

Problem: Field request: IC50 | item: C[C@@H](NC(=O)[C@H]1CCN(CC(=O)NC(C)(C)C)C1)c1ccc(OCC(F)(F)F)s1 [Example 14, hydrochloride]
Solution: 1000 to 10000 nM

Problem: Field request: IC50 | item: C[C@@H](NC(=O)C1CC1c1nc2ccccc2[nH]1)c1cnc(OCC(F)(F)F)s1 (single isomer, unassigned) [Example 8A]
Solution: 100 to 1000 nM

Problem: Field request: IC50 | item: C[C@H](NC(=O)C1CC1c1nc2ccccc2[nH]1)c1ccc(OCC(F)(F)F)s1 (single isomer, unassigned) [Example 2A]
Solution: 1000 to 10000 nM

Problem: Field request: IC50 | item: C[C@@H](NC(=O)C1CC1c1nc2ccccc2n1C)c1ccc(OCC(F)(F)F)s1 (single isomer, unassigned) [Example 4B]
Solution: 1000 to 10000 nM

Problem: Field request: IC50 | item: Cc1cc([C@@H](C)NC(=O)C2CC2c2nc3ccccc3[nH]2)sc1OCC(F)(F)F (single isomer, unassigned) [Example 1A]
Solution: 100 to 1000 nM

Problem: Field request: IC50 | item: Cc1cc([C@@H](C)NC(=O)C2CC2c2nc3ccccc3[nH]2)sc1OCC(F)(F)F (single isomer, unassigned) [Example 1B]
Solution: 1000 to 10000 nM

Problem: Field request: IC50 | item: C[C@H](NC(=O)C1CC1c1nc2ccccc2[nH]1)c1ccc(OCC(F)(F)F)s1 (single isomer, unassigned) [Example 2B]
Solution: 1000 to 10000 nM

Problem: Field request: IC50 | item: C[C@@H](NC(=O)C1CC1c1nc2ccccc2[nH]1)c1ncc(Br)s1 (single isomer, unassigned) [Example 11B]
Solution: > 10000 nM

Problem: Field request: IC50 | item: C[C@@H](NC(=O)C1CC1c1nc2ccccc2[nH]1)c1cnc(OCC(F)(F)F)s1 (single isomer, unassigned) [Example 8B]
Solution: > 10000 nM

Problem: Field request: IC50 | item: C[C@@H](NC(=O)C1CC1c1nc2ccccc2[nH]1)c1ccc(C(F)(F)F)s1 (single isomer, unassigned) [Example 5A]
Solution: 100 to 1000 nM

Problem: Field request: IC50 | item: C[C@@H](NC(=O)[C@@H]1CCN(CCC(C)(C)C)C1)c1ccc(OCC(F)(F)F)s1 [Example 18, hydrochloride]
Solution: 1000 to 10000 nM

Problem: Field request: IC50 | item: C[C@@H](NC(=O)C1CC1c1nc2ccccc2[nH]1)c1ccc(Br)s1 (single isomer, unassigned) [Example 6A]
Solution: 100 to 1000 nM

Problem: Field request: IC50 | item: C[C@@H](NC(=O)C1CC1c1nc2ccccc2[nH]1)c1cnn(CCC(F)(F)F)c1 (some centres unmarked) [Example 9]
Solution: > 10000 nM

Problem: Field request: IC50 | item: C[C@@H](NC(=O)C1CC1c1nc2ccccc2[nH]1)c1ccc(OCC(F)(F)F)s1 (single isomer, unassigned) [Example 3A]
Solution: ≤ 100 nM

Problem: Field request: IC50 | item: C[C@@H](NC(=O)C1CC1c1nc2ccccc2[nH]1)c1ccc(C(F)(F)F)s1 (single isomer, unassigned) [Example 5B]
Solution: 1000 to 10000 nM

Problem: Field request: IC50 | item: C[C@@H](NC(=O)[C@@H]1CCN(c2nc3ccccc3s2)C1)c1ccc(OCC(F)(F)F)s1 [Example 13]
Solution: > 10000 nM

Where do the numbers come from? From patent US11420944B2.
